- Measured on: Na+-NQR (Na+-pumping NADH-ubiquinone oxidoreductase), inhibitor site at NqrB N-terminal region (Vibrio cholerae, UniProt A5F5X0, E157A)
- Measurement setup: substrates NADH and ubiquinone-1; 50% inhibition not reached at highest concentration; mutant activity 50-60% lower than wild type
Observation type: IC50

IC50 in this record for `CCCCCCCC[C@H]1O[C@H]1C/C=C/C=C/[C@H](O)CC(=O)NC1=C[C@](C)(CC)OC1=O` : > 2 µM
